Tested on: SF-539 CNS
PROCEDURE_SUMMARY: NCI-60 one-dose screen, 48 h
ASSAY_SETUP: 10 µM unless noted
The panel holds about 83,000 compounds, 20% with a hit somewhere; the sample as a whole holds those more often. Calls of active or inactive are those of the source. Rule for the calls: active = growth percent below 10; inactive = the rest.
# output must be one of active, inactive

{"columns": ["COMPOUND", "ASSIGNED_LABEL"],
 "data": [
  ["CNCC[C@H](Oc1cccc2ccccc12)c1cccs1", "inactive"]
]}

Please look at the following compound next.
Problem: // param item: CCN(CC)CCOc1ccc(C(=O)/C=C\c2ccc(Cl)cc2Cl)cc1 ; yields the recorded call
Result: inactive

###

Tested on: A498 renal
PROCEDURE_SUMMARY: NCI-60 one-dose screen, 48 h (100 = growth as untreated, 0 = no growth, -100 = all killed)
ASSAY_SETUP: 10 µM unless noted
This is part of a sample that, as a whole, favours compounds with a hit. Of some 83,000 tested, about 20% had one in any assay.
Rule: growth under 70% gives F, otherwise T.

{"columns": ["COMPOUND", "ASSIGNED_LABEL"],
 "data": [
  ["COc1ccc2c(c1)oc1c(C)c3c(c(C)c12)C(=O)N(CCOS(C)(=O)=O)C3=O", "T"]
]}

Problem: Can CCN(CC)C(=O)C1=C(C)NC(=O)NC1c1ccc2c(c1)OCO2 (centres undefined) be said to have growth at or above 70%?
Result: T

Problem: Can C=C1C(=O)O[C@H]2[C@H]1CC/C(COC(=O)/C=C\C(=O)NCc1ccc(Cn3c(=O)sn(CCCCl)c3=O)cc1)=C\CC[C@@]1(C)O[C@@H]21 be said to have growth at or above 70%?
Result: T

Problem: Can CC1=Nc2cnc(Nc3ccc(N4CCCCC4)cc3)nc2Nc2ccccc21 be said to have growth at or above 70%?
Result: F

###

Tested on: UACC-257 melanoma
PROCEDURE_SUMMARY: NCI-60 one-dose screen, 48 h (100 = growth as untreated, 0 = no growth, -100 = all killed)
ASSAY_SETUP: 10 µM unless noted
Protocol: Cells are grown in 96 well plates and exposed to the test compound for 48 hours. Compounds are tested at a single concentration, which is 10^-5 M for most compounds. The reported endpoint is percent growth (GI% or GIPRCNT), where numbers from 0 - 100% represent growth inhibition, and numbers from -100% - 0 represent cell death. For example, a value of 40 represents 60% growth inhibition. A value of 0 means no net growth occurred over the course of the experiment. […]
This is part of a sample that, as a whole, favours compounds with a hit. Of some 83,000 tested, about 20% had one in any assay.
QUANTITY_NAME: growth (%)
Quick note: give the figure in %, leave out the unit.

// known answers, use as guide
{"columns": ["COMPOUND", "REPORTED_VALUE"],
 "data": [
  ["COc1ccc(/C=C/C(c2cc(OC)c(OC)c(OC)c2)n2cncn2)cc1O (stereo not given)", 55.6],
  ["Cc1ccc2c(c1)sc1nc(-c3c[nH]c4ccccc34)c(Nc3ccccc3)n12", 105],
  ["Cn1cc(-c2csc(-c3cn(CCCN4CCOCC4)c4ccc(F)cc34)n2)c2cccnc21", 78.5],
  ["O=c1oc2c(cnc3ccccc32)cc1-c1cccc(Cl)c1", 101]
]}

Then there is this compound:
Problem: Kindly indicate its recorded growth. Item: CCOC(=O)C/C(=N\Nc1cc(=O)[nH]c2ccc(OC)cc12)C(=O)OCC
Result: 108
